Molecular target: Glycogen synthase kinase-3 beta (Homo sapiens) (UniProt P49841)
Sequence (P49841 whole entry, looked up): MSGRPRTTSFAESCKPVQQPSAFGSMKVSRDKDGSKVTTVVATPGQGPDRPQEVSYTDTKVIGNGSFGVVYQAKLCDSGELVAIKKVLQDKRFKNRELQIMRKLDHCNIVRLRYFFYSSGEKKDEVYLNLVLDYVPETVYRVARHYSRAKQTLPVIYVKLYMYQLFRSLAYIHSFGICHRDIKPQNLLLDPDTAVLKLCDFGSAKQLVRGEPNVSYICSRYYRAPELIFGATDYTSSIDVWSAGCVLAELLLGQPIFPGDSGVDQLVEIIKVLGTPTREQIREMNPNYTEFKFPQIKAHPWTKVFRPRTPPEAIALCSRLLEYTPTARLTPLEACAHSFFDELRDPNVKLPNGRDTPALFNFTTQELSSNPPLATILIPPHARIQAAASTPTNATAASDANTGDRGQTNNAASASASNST
Experiment: Inhibition of GSK3B at 30 uM by microfluidic mobility shift assay
Property: inhibition (%)

Past entries and their recorded results:
CN1CCN(c2ccc(-c3cc4[nH]nc(N)c4c(=O)[nH]3)cc2)CC1 | 42
Nc1n[nH]c2cc(-c3ccc(N4CCOCC4)cc3)[nH]c(=O)c12 | 41
Cc1cc2c(cn1)c(N)nn2C | 6
COc1ccc(-c2cc3nn(-c4ccccc4)c(N)c3c(=O)[nH]2)cc1 | 14

[A] Nc1c2cnc(-c3ccccc3)cc2nn1-c1ccccc1
[B] COc1ccc(-c2cc3c(c(N)nn3C)c(=O)[nH]2)cc1
Consider entries A and B . Which has the numerically lower inhibition? Answer by stating the label of the chosen item.
A
